System: prostaglandin-endoperoxide synthase 1 (PTGS1)
Assay: Affymetrix gene array on skin explants, PTGS1
Format: cell-based, human
Details: topical, 24 hours
measure: PTGS1 gene expression (log 2−ratio)
The reply should contain only the number, in log 2−ratio.

Worked examples follow.
molecule	unit of measurement	PTGS1 gene expression
CC(=O)N[C@@H](CC(=O)O)C(=O)O	log 2−ratio	−0.20
C=C1C[C@]23C[C@@]1(O)CC[C@H]2[C@@]12C=C[C@H](O)[C@@](C)(C(=O)O1)[C@@H]2[C@@H]3C(=O)O	log 2−ratio	−1.11
CC1=C(/C=C/C(C)=C/C=C/C(C)=C/C(=O)O)C(C)(C)CCC1 [All-trans retinoic acid, all-trans retinoic acid, reference compound]	log 2−ratio	−1.03

Could you now look at the following molecule, please?
[in] Item O=C1C[C@@H](c2ccc(O)cc2)Oc2cc(O)cc(O)c21 has what recorded PTGS1 gene expression?
[out] −3.51

----------
System: pro-collagen type 1
Test: Pro-collagen 1 ELISA in dermal fibroblasts
Format: cell-based, human
Details: 24 hour stimulation, 3 donors (FIG. 5)

smiles code	test system	production of pro-collagen type 1
CC(=O)N[C@@H](CC(=O)O)C(=O)O	pro-collagen type 1	significantly increase
C=C1C[C@]23C[C@@]1(O)CC[C@H]2[C@@]12C=C[C@H](O)[C@@](C)(C(=O)O1)[C@@H]2[C@@H]3C(=O)O	pro-collagen type 1	significantly increase

----------
System: steroid 5 alpha-reductase 3 (SRD5A3)
Experiment: Affymetrix gene array on skin explants, SRD5A3
Assay type: cell-based, human
Conditions: topical, 24 hours
measure: SRD5A3 gene expression (log 2−ratio)
The reply should contain only the number, in log 2−ratio.

Worked examples follow.
compound	SRD5A3 gene expression, log 2−ratio
CC(=O)N[C@@H](CC(=O)O)C(=O)O	−1.54
CC1=C(/C=C/C(C)=C/C=C/C(C)=C/C(=O)O)C(C)(C)CCC1 [All-trans retinoic acid, all-trans retinoic acid, reference compound]	0.29
O=C1C[C@@H](c2ccc(O)cc2)Oc2cc(O)cc(O)c21	1.25

Could you now look at the following compound, please?
[in] Quick check: SRD5A3 gene expression on steroid 5 alpha-reductase 3 (SRD5A3), item C=C1C[C@]23C[C@@]1(O)CC[C@H]2[C@@]12C=C[C@H](O)[C@@](C)(C(=O)O1)[C@@H]2[C@@H]3C(=O)O ?
[out] −0.75

----------
Listed below: TAC1 gene expression values for each entry.
Tested on: tachykinin, precursor 1 (TAC1)
Test: Affymetrix gene array on skin explants, TAC1
Format: cell-based, human
Details: topical, 24 hours
Experimental: Subcutaneous fat from full thickness skin, obtained from surgical waste material from breast reduction procedures, was removed with a scalpel. Three healthy Caucasian female donors were used for this study. […] RNA concentration was measured with ND-1000 spectrophotometer (ex. NanoDrop Technologies) and RNA quality was evaluated using the Agilent 2100 bioanalyzer system (ex. Agilent Technologies). […]
The reply should contain only the number, in log 2−ratio.

Worked examples follow.
molecule	TAC1 gene expression / log 2−ratio
CC(=O)N[C@@H](CC(=O)O)C(=O)O [N-Acetyl aspartic acid, (2S)-2-Acetamidobutanedioic acid]	−1.23
CC1=C(/C=C/C(C)=C/C=C/C(C)=C/C(=O)O)C(C)(C)CCC1 [All-trans retinoic acid, all-trans retinoic acid, reference compound]	−4.01
O=C1C[C@@H](c2ccc(O)cc2)Oc2cc(O)cc(O)c21 [Naringenin]	−2.78

Could you now look at the following molecule, please?
[in] Item C=C1C[C@]23C[C@@]1(O)CC[C@H]2[C@@]12C=C[C@H](O)[C@@](C)(C(=O)O1)[C@@H]2[C@@H]3C(=O)O [Gibberellic acid] has what recorded TAC1 gene expression?
[out] −0.62

Cited source for all entries: patent US20140301961A1
